All figures here come from paper PMC10397247.

Biological target: T1, P2-AA-12HGe-H
T1 chain: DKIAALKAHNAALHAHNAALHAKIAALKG
Assay: two-hybrid library CCmax;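 further: natural log of median RNA to DNA barcode read ratio; higher means stronger binding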
Conditions: mean of both orientations
Value Kind: interaction score
// no unit string in output, number only

May I ask what interaction score has been recorded for DEIAALEARNAALRARNAALRAEIAALEG [P1-AA-12HGe-R] ?
-0.986

May I ask what interaction score has been recorded for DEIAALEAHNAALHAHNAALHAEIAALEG [P1-AA-12HGe-H] ?
-1.82

May I ask what interaction score has been recorded for DEIAALEAQNAALQAQNAALQAEIAALEG [P1-AA-12HGe-Q] ?
0.459

May I ask what interaction score has been recorded for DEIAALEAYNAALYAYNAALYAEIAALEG [P1-AA-12HGe-Y] ?
-1.21

May I ask what interaction score has been recorded for DEIAALEAANAALAAANAALAAEIAALEG [P1-AA-12HGe-A] ?
0.332
